Assay: In vivo pharmacokinetic studies (bioavailability)
Details: Sprague-Dawley (SD), rat, plasma, iv, 1 mg/kg; SD rats; I.V 1.00mg/kg

COMPOUND	MEASURE UNIT	half-life
CCn1c(-c2ccc(OCCCN3CCCCC3)cc2)cc(=O)c2ccccc21 [Compound I-6]	h	6

###

Assay: In vivo pharmacokinetic studies (bioavailability)
Conditions: Sprague-Dawley (SD), rat, plasma, po, 10 mg/kg; SD rats; read-out: absolute bioavailability

MOLECULE	MEASURE UNIT	bioavailability
CCn1c(-c2ccc(OCCCN3CCCCC3)cc2)cc(=O)c2ccccc21 [Compound I-6]	%	51.3

###

Experiment: In vivo pharmacokinetic studies (bioavailability)
Conditions: Sprague-Dawley (SD), rat, plasma, po; SD rats; P.O 10.0 mg/kg
MEASURED METRIC: half-life (min)

SMILES RECORD	RESULT
CCn1c(-c2ccc(OCCCN3CCCCC3)cc2)cc(=O)c2ccccc21	227
